Biological target: JAK2 (Homo sapiens (Human), UniProt O60674)
Sequence (O60674 849-1124): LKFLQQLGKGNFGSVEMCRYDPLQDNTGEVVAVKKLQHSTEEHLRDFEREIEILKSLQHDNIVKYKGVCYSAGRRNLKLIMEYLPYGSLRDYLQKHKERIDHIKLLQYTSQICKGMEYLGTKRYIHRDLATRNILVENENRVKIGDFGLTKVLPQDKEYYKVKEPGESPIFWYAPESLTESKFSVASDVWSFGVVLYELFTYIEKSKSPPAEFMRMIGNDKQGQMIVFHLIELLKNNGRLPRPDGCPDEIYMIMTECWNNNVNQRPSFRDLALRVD
Test: JAK kinase assay (HTRF), JAK2
Details: catalytic domain, His-tag, ATP at Km (4 μM)
ASSAY_READOUT: EC50 (µM)
Answers are plain numbers, in µM.

Answered cases to consult:
C[C@]12CN(C#N)C[C@H]1CCN(c1ncnc3[nH]ccc13)C2    0.035
C[C@@]12CN(C#N)CC[C@@H]1CCN(c1ncnc3[nH]ccc13)C2    0.428
C[C@]12CN(c3ccc(S(C)(=O)=O)cc3)C[C@H]1CCN(c1ncnc3[nH]ccc13)C2 (racemic)    0.032
C[C@]12CN(c3ncc(C#N)cn3)CC[C@H]1CCN(c1ncnc3[nH]ccc13)C2 (racemic)    0.14

Quick batch: EC50 for everything below.
1. C[C@]12CN(c3ncc(Br)cc3CO)C[C@H]1CCN(c1ncnc3[nH]ccc13)C2 (racemic)
2. C[C@]12CN(C#N)CC[C@H]1CCN(c1ncnc3[nH]ccc13)C2 [Example 1]
3. C[C@]12CN(c3ccc(C#N)cn3)CC[C@H]1CCN(c1ncnc3[nH]ccc13)C2 (racemic)

0.048
0.004
0.08

Batch request: EC50 for each of the following molecules.
1. CC[C@]12CN(C#N)CC[C@H]1CCN(c1ncnc3[nH]ccc13)C2 (relative stereo) [Example 23]
2. CC[C@]12CN(c3ncnc4[nH]ccc34)CC[C@H]1CCN(S(N)(=O)=O)C2
3. CC[C@@]12CN(C#N)CC[C@@H]1CCN(c1ncnc3[nH]ccc13)C2
4. CC12CN(c3ccc(C#N)cn3)C[C@@H]1CCN(c1ncnc3[nH]ccc13)C2 (stereo in doubt)
5. CC[C@@]12CN(c3ncnc4[nH]ccc34)CC[C@@H]1CCN(S(N)(=O)=O)C2 (relative stereo) [Example 17]
6. CC[C@]12CN(C=O)CC[C@H]1CCN(c1ncnc3[nH]ccc13)C2 (relative stereo)
7. C[C@]12CN(c3ccc(C#N)nn3)CC[C@H]1CCN(c1ncnc3[nH]ccc13)C2 (racemic)

[0.004, 0.208, 0.187, 0.927, 0.007, 0.041, 0.064]

List reported EC50 for each of these molecules:
1. C[C@]12CN(C(=O)C3(C#N)CCCC3)C[C@H]1CCN(c1ncnc3[nH]ccc13)C2 (racemic)
2. C[C@]12CN(c3ccc(S(C)(=O)=O)cn3)C[C@H]1CCN(c1ncnc3[nH]ccc13)C2 (racemic)

0.625
0.131

Origin of the recorded values: patent US10851116B2
